test system: PC-14; assay: relative viability (nuclei count vs DMSO), 5 days (fraction); higher = more cells survive; settings: first compound 15.81 µM
parameter: relative viability

# annotated cases, reported relative viability shown
INSERT INTO results (molecule, assay_system, parameter, recorded_result) VALUES
  ('O=C(O)CCCCC(CCSCc1ccccc1)SCc1ccccc1 (stereo not drawn) [CPI-613] + Nc1nc2[nH]cc(CCc3ccc(C(=O)N[C@@H](CCC(=O)O)C(=O)O)cc3)c2c(=O)[nH]1 [Pemetrexed] (partner 0.2 µM)', 'PC-14', 'relative viability', 0.13),
  ('O=C(O)CCCCC(CCSCc1ccccc1)SCc1ccccc1 (stereo not drawn) [CPI-613] + CC(=O)Nc1cccc(-n2c(=O)n(C3CC3)c(=O)c3c(Nc4ccc(I)cc4F)n(C)c(=O)c(C)c32)c1 [Trametinib] (partner 0.02 µM)', 'PC-14', 'relative viability', 0.549);

Next molecule, please.
### Prompt Quote relative viability reported for O=C(O)CCCCC(CCSCc1ccccc1)SCc1ccccc1 (stereo not drawn) [CPI-613] + CS(=O)(=O)N1CCN(Cc2cc3nc(-c4cccc5[nH]ncc45)nc(N4CCOCC4)c3s2)CC1 [Pictilisib] (partner 1 µM) please.
### Response 0.677
